Values from the supplement of paper PMC7125110

B1: glmS ribozyme (parent)
chain: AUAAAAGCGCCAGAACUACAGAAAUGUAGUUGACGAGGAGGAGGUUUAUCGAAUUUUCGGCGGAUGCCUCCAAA

- Variants of: B1
- Experiment: KM; higher = weaker cofactor use; RNA array
- Conditions: with glucosamine-6-phosphate
Response field class: string, computed from recorded KM by ranges bin 1 (below 2000 µM), bin 2 (2000 µM to below 3000 µM), bin 3 (3000 µM or more)

INSERT INTO assay_data (sequence_change, assigned_class) VALUES
  ('A12C A15G', 'bin 2'),
  ('A64G C70G', 'bin 1'),
  ('A48U C71U', 'bin 1'),
  ('G13A A53G', 'bin 3'),
  ('G44C U56A', 'bin 2'),
  ('C10U', 'bin 1'),
  ('A15C G40C', 'bin 1'),
  ('G32A A64C', 'bin 1'),
  ('C11A A15U', 'bin 1'),
  ('G13A A15C', 'bin 2'),
  ('A52C U54A', 'bin 1'),
  ('G29U A39C', 'bin 2'),
  ('A42G A48C', 'bin 3'),
  ('U31C U49G', 'bin 1'),
  ('A12G G66A', 'bin 3'),
  ('G40U C71U', 'bin 1'),
  ('G41A A53U', 'bin 1'),
  ('A12U U31C U47G', 'bin 3'),
  ('G29A U46C', 'bin 1'),
  ('U45G C58G', 'bin 3'),
  ('A48U U69C', 'bin 1'),
  ('C16G A64C', 'bin 3'),
  ('G40C U55C', 'bin 3'),
  ('U45G U56G', 'bin 2'),
  ('A48U U54G C70U', 'bin 1'),
  ('A6C U55G', 'bin 3'),
  ('A39U G41C', 'bin 1'),
  ('G40U U46C', 'bin 2'),
  ('A39C U54A', 'bin 1'),
  ('U54C U55C', 'bin 2'),
  ('G41U G66A', 'bin 1'),
  ('A39G U54A', 'bin 1'),
  ('G41C U55A', 'bin 1'),
  ('U47A G59A', 'bin 3'),
  ('A6C C71U', 'bin 1'),
  ('A39U A53G', 'bin 1'),
  ('A48U U55C', 'bin 2'),
  ('A52G U69C', 'bin 1'),
  ('C16A C58A', 'bin 1'),
  ('A39U U65G', 'bin 2'),
  ('G29U C67U', 'bin 1'),
  ('U49G C58A', 'bin 3'),
  ('A14C U65G', 'bin 3'),
  ('A12U U69G', 'bin 1');
